Reference for the values: patent US11919902B2

Sequence of the target: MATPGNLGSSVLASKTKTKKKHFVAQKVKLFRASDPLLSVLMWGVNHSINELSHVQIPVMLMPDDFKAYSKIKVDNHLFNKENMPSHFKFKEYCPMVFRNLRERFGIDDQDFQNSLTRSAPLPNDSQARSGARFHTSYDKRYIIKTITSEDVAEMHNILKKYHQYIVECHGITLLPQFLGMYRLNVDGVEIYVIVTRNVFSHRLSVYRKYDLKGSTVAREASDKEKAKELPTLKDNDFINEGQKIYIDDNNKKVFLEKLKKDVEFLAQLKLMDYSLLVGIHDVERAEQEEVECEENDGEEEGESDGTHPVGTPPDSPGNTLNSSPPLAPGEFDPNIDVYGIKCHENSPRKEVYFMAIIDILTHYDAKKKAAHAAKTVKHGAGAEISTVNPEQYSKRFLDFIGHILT
endpoint: IC50

{"columns": ["compound", "IC50"],
 "data": [
  ["CN1CCn2c(cc3c(-c4cncc(-c5ccc(-c6nncn6C6CC(F)(F)C6)cc5)c4)ccnc32)C1=O [Example 394]", "2500 to 5000 nM"]
]}

Task: Provide only the value of recorded IC50 for CN(C)C(=O)c1cnc2[nH]cc(-c3cncc(-c4ccc(N5CCCC5=O)cc4)c3)c2c1 [Example 72]
Output: 5 to 100 nM

Task: Provide only the value of recorded IC50 for COc1ncc(-c2cncc(-c3ccc(N4CCCC4=O)cc3)c2)c2cn(C)nc12 [Example 157]
Output: 100 to 1000 nM

Task: Provide only the value of recorded IC50 for CN(C)C(=O)c1ccc(-c2cc(-c3ccnc(C(C)(C)C#N)c3)cnc2N)nc1 [Example 102]
Output: 1000 to 2500 nM

---

Target sequence: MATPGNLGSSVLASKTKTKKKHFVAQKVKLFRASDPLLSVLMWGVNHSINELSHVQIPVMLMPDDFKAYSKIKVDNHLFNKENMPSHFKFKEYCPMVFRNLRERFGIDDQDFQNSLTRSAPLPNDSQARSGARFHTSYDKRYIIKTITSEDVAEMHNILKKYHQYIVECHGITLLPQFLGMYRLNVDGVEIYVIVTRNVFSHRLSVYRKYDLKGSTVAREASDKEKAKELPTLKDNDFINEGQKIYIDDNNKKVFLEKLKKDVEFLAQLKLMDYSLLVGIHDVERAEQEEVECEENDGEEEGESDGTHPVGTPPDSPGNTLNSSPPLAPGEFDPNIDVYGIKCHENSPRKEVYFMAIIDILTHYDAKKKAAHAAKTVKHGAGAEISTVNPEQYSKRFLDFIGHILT
Measured IC50, listed per entry.

Recorded IC50, per entry:
{"columns": ["molecule", "IC50"],
 "data": [
  ["O=C(NC1CC1c1ccccc1)c1cc2c(-c3cncc(-c4ccc(N5CCCC5=O)cc4)c3)ccnc2[nH]1 (stereo not drawn)", "100 to 1000 nM"],
  ["COC(=O)N1Cc2nccc(-c3cncc(-c4ccc(N5CCCC5=O)cc4)c3)c2C1", "1000 to 2500 nM"],
  ["O=C(NC1CC1)c1cc2c(-c3cncc(-c4ccc(N5CCCC5=O)cc4)c3)ccnc2[nH]1", "100 to 1000 nM"],
  ["Nc1ncc(-c2cccc3nccn23)cc1-c1ccc(N2CCCC2=O)cn1", "2500 to 5000 nM"],
  ["CN(C)C(=O)c1ccc(-c2cc(-c3ccnc4[nH]c(C(=O)NC5CCNC5=O)cc34)cnc2N)nc1 (stereo not drawn)", "1000 to 2500 nM"]
]}

Below: the item to evaluate.
Task: Provide only the value of recorded IC50 for "O=C1CCCN1c1ccc(-c2cncc(-c3ccnc4c3OCCO4)c2)cc1"
Output: 2500 to 5000 nM

---

# target.entity: GST tagged PIP4KtypeIIB (Homo sapiens, UniProt P78356)
# Sequence (P78356 1-416): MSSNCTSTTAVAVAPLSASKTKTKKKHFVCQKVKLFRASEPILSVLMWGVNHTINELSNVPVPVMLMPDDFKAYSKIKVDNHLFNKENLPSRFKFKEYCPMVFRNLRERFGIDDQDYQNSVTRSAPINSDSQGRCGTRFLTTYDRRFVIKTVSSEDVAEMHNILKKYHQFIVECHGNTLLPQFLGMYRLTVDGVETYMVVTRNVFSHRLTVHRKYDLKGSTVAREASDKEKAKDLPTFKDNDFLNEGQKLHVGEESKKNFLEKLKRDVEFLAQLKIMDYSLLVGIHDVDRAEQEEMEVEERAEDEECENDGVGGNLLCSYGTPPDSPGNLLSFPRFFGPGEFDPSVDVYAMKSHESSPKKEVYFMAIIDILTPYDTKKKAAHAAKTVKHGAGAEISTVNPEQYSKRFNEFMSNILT
endpoint: IC50

Recorded IC50, per entry:
{"columns": ["compound", "target.entity", "IC50"],
 "data": [
  ["O=C(NCc1nc2ccccc2[nH]1)c1cc2c(-c3cncc(-c4ccc(N5CCCC5=O)cc4)c3)ccnc2[nH]1", "GST tagged PIP4KtypeIIB (Homo sapiens, UniProt P78356)", "10 to 100 nM"],
  ["CN(C)C(=O)c1ccc(-c2cc(-c3ccnc4[nH]c(C(=O)N[C@H]5COC[C@H]5N)cc34)cnc2N)nc1", "GST tagged PIP4KtypeIIB (Homo sapiens, UniProt P78356)", "10 to 100 nM"]
]}

Below: the item to evaluate.
Task: Provide only the value of recorded IC50 for "O=C1CCCN1c1ccc(-c2cncc(-c3ccnc4c3cc3n4CCN(c4ccc5c(n4)OCCO5)C3=O)c2)cc1"
Output: 1 to 10 nM

---

Sequence of the target: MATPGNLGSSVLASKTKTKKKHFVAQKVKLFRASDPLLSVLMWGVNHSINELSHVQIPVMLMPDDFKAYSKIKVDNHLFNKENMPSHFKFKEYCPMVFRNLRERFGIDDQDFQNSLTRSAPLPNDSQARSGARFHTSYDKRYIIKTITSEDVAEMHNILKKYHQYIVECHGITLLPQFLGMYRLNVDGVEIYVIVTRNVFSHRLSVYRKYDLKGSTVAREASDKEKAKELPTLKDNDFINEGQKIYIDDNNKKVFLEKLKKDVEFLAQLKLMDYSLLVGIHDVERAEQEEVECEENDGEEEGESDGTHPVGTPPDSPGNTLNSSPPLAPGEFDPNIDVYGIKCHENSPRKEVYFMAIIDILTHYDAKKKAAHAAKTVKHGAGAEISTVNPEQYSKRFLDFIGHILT
Measured IC50, listed per entry.

Recorded IC50, per entry:
{"columns": ["compound", "IC50"],
 "data": [
  ["CC(C)n1ccnc1-c1ccc(-c2cncc(-c3ccnc4c3cc3n4CCN(C)C3=O)c2)cc1 [Example 364]", "< 5 µM"],
  ["Cc1cnc2[nH]ccc2c1-c1cncc(-c2ccc(N3CCCC3=O)cc2)c1 [Example 35]", "0.1 to 1 µM"],
  ["CN1CCn2c(cc3c(-c4cncc(-c5ccc(-c6nncn6CCC6CC6)cc5)c4)ccnc32)C1=O [Example 369]", "0.1 to 1 µM"]
]}

Task: Provide only the value of recorded IC50 for CN(C)C(=O)c1ccc(-c2cc(-c3ccncc3)cnc2N)nc1 [Example 19]
Output: 0.1 to 1 µM

Task: Provide only the value of recorded IC50 for Cc1cccc2[nH]c(CNC(=O)c3cc4c(-c5cncc(-c6ccc(N7CCCC7=O)cc6)c5)ccnc4[nH]3)nc12 [Example 317]
Output: < 5 µM

Task: Provide only the value of recorded IC50 for CN1C(=O)Cc2c(-c3cncc(-c4ccc(N5CCCC5=O)cc4)c3)ccnc21 [Example 76]
Output: 0.1 to 1 µM

Task: Provide only the value of recorded IC50 for CC(O)c1cnc2[nH]cc(-c3cncc(-c4ccc(C(=O)N(C)C)cc4)c3)c2c1 (stereo not drawn) [Example 15]
Output: 0.005 to 0.1 µM

Task: Provide only the value of recorded IC50 for CC(C)n1cnnc1-c1ccc(-c2cncc(-c3ccnc4[nH]c(C(=O)NCc5cccnc5)cc34)c2)cc1 [Example 378]
Output: 0.1 to 1 µM

---

Target sequence: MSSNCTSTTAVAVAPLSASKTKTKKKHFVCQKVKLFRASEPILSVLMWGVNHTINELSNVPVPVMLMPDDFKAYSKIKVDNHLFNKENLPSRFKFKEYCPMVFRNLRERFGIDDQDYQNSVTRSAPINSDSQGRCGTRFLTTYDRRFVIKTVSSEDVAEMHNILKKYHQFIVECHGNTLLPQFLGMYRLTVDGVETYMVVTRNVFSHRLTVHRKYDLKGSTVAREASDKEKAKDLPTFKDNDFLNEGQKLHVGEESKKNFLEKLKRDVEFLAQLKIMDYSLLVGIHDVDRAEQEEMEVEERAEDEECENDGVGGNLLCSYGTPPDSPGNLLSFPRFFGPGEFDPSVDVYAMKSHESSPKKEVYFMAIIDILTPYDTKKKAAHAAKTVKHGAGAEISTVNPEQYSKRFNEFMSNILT
endpoint: IC50

Task: Provide only the value of recorded IC50 for "COc1ncc(-c2cncc(-c3ccc(N4CCCC4=O)cc3)c2)c2cn(C)nc12"
Output: 100 to 1000 nM

Task: Provide only the value of recorded IC50 for "O=C1CCCN1c1ccc(-c2cncc(-c3c(OC4CCOCC4)cnc4[nH]ccc34)c2)cc1"
Output: 1000 to 2500 nM

Task: Provide only the value of recorded IC50 for "O=C1CCCN1c1ccc(-c2cncc(-c3c[nH]c(=O)c4[nH]ncc34)c2)cc1"
Output: 100 to 1000 nM
